# reported Skeletal EC25; entries follow
- System: Rabbit Psoas myofibrils (skeletal myosin ATPase)
- experimental.protocol: Myofibril ATPase assay, rabbit psoas (skeletal) myofibrils
- Assay type: biochemical
- condition.details: Y75 value (no ‡ mark); rabbit psoas myofibrils
- Experimental: Example 1. Myofibril ATPase Assay Myofibril ATPase assays are known in the art to be useful in evaluating small molecules for the treatment of HCM and other cardiac indications. Myosin ATPase activity is assessed by using a coupled reaction system, in which ADP generated by the myosin ATPase function is coupled to the disappearance of NADH through the pyruvate kinase/lactate dehydrogenase (PK-LDH) system. […]

compound: Cc1c(F)ccc2[nH]c(=O)c(C(F)(F)C(=O)N[C@H](C)c3ncc(C#N)cn3)c(C#N)c12 (single isomer, unassigned) [Compound 2511]
unit.of.measurement: nM
Skeletal EC25: 280
//
compound: Cc1c(CC(=O)N[C@H](C)c2ccc(C#N)cn2)c(=O)[nH]c2ccc(F)c(C#N)c12 [compound 49]
unit.of.measurement: nM
Skeletal EC25: 60
//
compound: C[C@@H](NC(=O)Cc1c(C2CC2)c2cc(C#N)ccc2[nH]c1=O)c1ncc(C#N)cc1F [compound 1151]
unit.of.measurement: nM
Skeletal EC25: 10080
//
compound: Cc1c(CC(=O)N[C@@H](C)c2ccc(C#N)nn2)c(=O)[nH]c2ccc(F)cc12 [compound 1120]
unit.of.measurement: nM
Skeletal EC25: 2900
//
compound: Cc1cc(C#N)nnc1[C@@H](C)NC(=O)Cc1c(C)c2c(F)c(F)ccc2[nH]c1=O [compound 1135]
unit.of.measurement: nM
Skeletal EC25: 2900
//
compound: Cc1cc(F)cnc1[C@H](C)NC(=O)C(F)(F)c1c(C)c2cc(F)ccc2[nH]c1=O (single isomer, unassigned) [compound 4808]
unit.of.measurement: nM
Skeletal EC25: 100000
//
compound: Cc1nc([C@H](C)NC(=O)Cc2c(C)c3c(C)c(F)ccc3[nH]c2=O)ncc1C#N (single isomer, unassigned) [compound 4840]
unit.of.measurement: nM
Skeletal EC25: 290

----------
- System: Rabbit Psoas myofibrils (skeletal myosin ATPase)
- experimental.protocol: Myofibril ATPase assay, rabbit psoas (skeletal) myofibrils
- Type: biochemical
- condition.details: Y75 value (no ‡ mark); rabbit psoas myofibrils
reported.endpoint: Skeletal EC25 (nM)

compound: O=C(Cc1cc2c(F)c(F)ccc2[nH]c1=O)N[C@@H]1COc2ncccc21 (single isomer, unassigned)
reported.endpoint: Skeletal EC25
observed.measurement: 1550
//
compound: C[C@@H](NC(=O)Cc1c(C2CC2)c2cc(F)ccc2[nH]c1=O)c1ccc(C#N)nn1 (single isomer, unassigned)
reported.endpoint: Skeletal EC25
observed.measurement: 12450
//
compound: Cc1cc(C#N)ccc1[C@@H](C)NC(=O)Cc1c(O)c2cc(F)c(F)cc2[nH]c1=O
reported.endpoint: Skeletal EC25
observed.measurement: 100000
//
compound: CCc1c(CC(=O)N[C@H](C)c2ncc(C#N)cn2)c(=O)[nH]c2ccc(F)c(C)c12 (single isomer, unassigned)
reported.endpoint: Skeletal EC25
observed.measurement: 270
//
compound: Cc1nnccc1[C@H](C)NC(=O)Cc1c(C)c2cc(F)ccc2[nH]c1=O
reported.endpoint: Skeletal EC25
observed.measurement: 100000
//
compound: C[C@H](NC(=O)Cc1c(C2CC2)c2cc(F)ccc2[nH]c1=O)c1ncc(C#N)cn1 (single isomer, unassigned)
reported.endpoint: Skeletal EC25
observed.measurement: 260
//
compound: Cc1c(CC(=O)N[C@@H](C)c2ccc(C#N)cn2)c(=O)[nH]c2cc(F)ccc12
reported.endpoint: Skeletal EC25
observed.measurement: 100000
//
compound: Cc1c(C2(C(=O)N[C@H](C)c3cc(C#N)ccn3)CC2)c(=O)[nH]c2ccc(F)c(F)c12 (single isomer, unassigned)
reported.endpoint: Skeletal EC25
observed.measurement: 100000
//
compound: Cc1c(CC(=O)N[C@H](C)c2ncc(C#N)cn2)c(=O)[nH]c2ccc(F)c(F)c12
reported.endpoint: Skeletal EC25
observed.measurement: 580
//
compound: Cc1ccncc1[C@H](C)NC(=O)Cc1c(C)c2cc(F)ccc2[nH]c1=O
reported.endpoint: Skeletal EC25
observed.measurement: 29000
//
compound: Cc1c(C(F)(F)C(=O)N[C@@H](C)c2ncc(C#N)cn2)c(=O)[nH]c2cccc(C#N)c12 (single isomer, unassigned)
reported.endpoint: Skeletal EC25
observed.measurement: 130
//
compound: C[C@H](NC(=O)[C@@H](C)c1cc2cc(F)ccc2[nH]c1=O)c1ccc(F)cc1F (single isomer, unassigned)
reported.endpoint: Skeletal EC25
observed.measurement: 100000
//
compound: Cc1c(CC(=O)N[C@H](C)c2ccc(C#N)cc2F)c(=O)[nH]c2ccc(F)c(C(F)(F)F)c12
reported.endpoint: Skeletal EC25
observed.measurement: 20
//
compound: C[C@@H](NC(=O)Cc1c(C2CC2)c2cc(F)ccc2[nH]c1=O)c1ncc(C#N)cn1 (single isomer, unassigned)
reported.endpoint: Skeletal EC25
observed.measurement: 500
//
compound: C[C@H](NC(=O)C1(c2cc3c(F)c(F)ccc3[nH]c2=O)CC1)c1ccc(F)cc1F
reported.endpoint: Skeletal EC25
observed.measurement: 190
//
compound: C[C@H](NC(=O)C1(c2cc3c(F)c(F)ccc3[nH]c2=O)CC1)c1ncc(C#N)cn1 (single isomer, unassigned)
reported.endpoint: Skeletal EC25
observed.measurement: 1220
//
compound: Cc1c(C(F)(F)C(=O)N[C@H](C)c2cc(C#N)ccn2)c(=O)[nH]c2ccc(F)c(F)c12 (single isomer, unassigned)
reported.endpoint: Skeletal EC25
observed.measurement: 3040
//
compound: Cc1c(C(F)(F)C(=O)N[C@@H]2COc3cc(C#N)cc(F)c32)c(=O)[nH]c2ccc(F)cc12 (single isomer, unassigned)
reported.endpoint: Skeletal EC25
observed.measurement: 790
//
compound: C[C@@H](NC(=O)Cc1cc2cc(F)c(F)cc2[nH]c1=O)c1ncc(C#N)cn1 (single isomer, unassigned)
reported.endpoint: Skeletal EC25
observed.measurement: 5700
//
compound: Cc1c(CC(=O)N[C@@H](C)c2cnc(C#N)nc2)c(=O)[nH]c2cc(F)c(F)cc12 (single isomer, unassigned)
reported.endpoint: Skeletal EC25
observed.measurement: 40
//
compound: Cc1nc(C#N)cnc1[C@@H](C)NC(=O)C1(c2cc3c(F)c(F)ccc3[nH]c2=O)CC1 (single isomer, unassigned)
reported.endpoint: Skeletal EC25
observed.measurement: 100000
//
compound: Cc1c(C2(C(=O)N[C@@H](C)c3cc(C#N)ccn3)CC2)c(=O)[nH]c2ccc(F)c(F)c12 (single isomer, unassigned)
reported.endpoint: Skeletal EC25
observed.measurement: 960
//
compound: Cc1cc(C#N)cnc1[C@H](C)NC(=O)Cc1c(O)c2c(C)c(F)ccc2[nH]c1=O
reported.endpoint: Skeletal EC25
observed.measurement: 100000
//
compound: Cc1nc(C#N)ccc1[C@@H](C)NC(=O)Cc1c(C)c2cc(F)ccc2[nH]c1=O
reported.endpoint: Skeletal EC25
observed.measurement: 3400
//
compound: Cc1c([C@H](C)C(=O)N[C@@H](C)c2ccc(F)cc2F)c(=O)[nH]c2ccc(F)c(F)c12 (single isomer, unassigned)
reported.endpoint: Skeletal EC25
observed.measurement: 30
//
compound: N#Cc1cnc2c(n1)CC[C@@H]2NC(=O)Cc1cc2cc(F)c(F)cc2[nH]c1=O
reported.endpoint: Skeletal EC25
observed.measurement: 4150

This collection of values is drawn from patent US12448369B2.
